This collection of values is drawn from ChEMBL document CHEMBL1125657.

# STUDY SYSTEM: Kappa-type opioid receptor (Cavia porcellus) (UniProt P41144)
# EXPERIMENT NOTES: Binding affinity of compound was measured against Opioid receptor kappa 1 on electrically stimulated guinea pig ileal longitudinal muscle myenteric plexus (GPI) at 100 nM preparation using EK as agonist
Record form. Attribute: Ke. Fill in for each entry.
Response body: numeric value in nM, unit text excluded.

What Ke value was documented for this compound, "Oc1ccc2c3c1O[C@H]1c4[nH]c5c(c4C[C@@]4(O)[C@@H](C2)N(CC2CC2)CC[C@]314)C[C@@]1(O)[C@H]2Cc3ccc(O)c4c3[C@@]1(CCN2CC1CC1)[C@H]5O4" ?
0.55

Proceed to "Oc1ccc2c3c1O[C@H]1C(SSC4=CC[C@@]5(O)[C@H]6Cc7ccc(O)c8c7[C@@]5(CCN6CC5CC5)[C@H]4O8)=CC[C@@]4(O)[C@@H](C2)N(CC2CC2)CC[C@]314"
3.5

Proceed to "Oc1ccc2c3c1O[C@H]1C4=C(C[C@@]5(O)[C@@H](C2)N(CC2CC2)CC[C@]315)C(c1ccccc1)C1=C(O4)[C@@H]2Oc3c(O)ccc4c3[C@@]23CCN(CC2CC2)[C@H](C4)[C@]3(O)C1"
2.6

Proceed to "Oc1ccc2c3c1O[C@H]1c4sc5c(c4C[C@@]4(O)[C@@H](C2)N(CC2CC2)CC[C@]314)C[C@@]1(O)[C@H]2Cc3ccc(O)c4c3[C@@]1(CCN2CC1CC1)[C@H]5O4"
2.6

Proceed to "O=C1C(=Cc2ccccc2)C[C@@]2(O)[C@H]3Cc4ccc(O)c5c4[C@@]2(CCN3CC2CC2)[C@H]1O5"
100

---

# STUDY SYSTEM: Mu-type opioid receptor (Cavia porcellus)
# EXPERIMENT NOTES: Maximal inhibition of compound was measured on guinea pig ileal longitudinal muscle (GPI) preparation at 1 uM concentration
# Assay type: functional, tissue-based
# MEASUREMENT CONDITIONS: Muscle tissue
The threshold is 10. Values of Activity beneath it are tagged MET; values meeting or exceeding it are tagged NOT MET.

hey, is Activity for Oc1ccc2c3c1O[C@H]1c4[nH]c5c(c4C[C@@]4(O)[C@@H](C2)N(CC2CC2)CC[C@]314)C[C@@]1(O)[C@H]2Cc3ccc(O)c4c3[C@@]1(CCN2CC1CC1)[C@H]5O4 [NORBINALTORPHIMINE] lower than 10 or not?
NOT MET

Proceed to "O=C1C(=Cc2ccccc2)C[C@@]2(O)[C@H]3Cc4ccc(O)c5c4[C@@]2(CCN3CC2CC2)[C@H]1O5"
MET

Proceed to "Oc1ccc2c3c1O[C@H]1C4=C(C[C@@]5(O)[C@@H](C2)N(CC2CC2)CC[C@]315)C(c1ccccc1)C1=C(O4)[C@@H]2Oc3c(O)ccc4c3[C@@]23CCN(CC2CC2)[C@H](C4)[C@]3(O)C1"
MET

Proceed to "Oc1ccc2c3c1O[C@H]1C(SSC4=CC[C@@]5(O)[C@H]6Cc7ccc(O)c8c7[C@@]5(CCN6CC5CC5)[C@H]4O8)=CC[C@@]4(O)[C@@H](C2)N(CC2CC2)CC[C@]314"
NOT MET

Proceed to "Oc1ccc2c3c1O[C@H]1c4sc5c(c4C[C@@]4(O)[C@@H](C2)N(CC2CC2)CC[C@]314)C[C@@]1(O)[C@H]2Cc3ccc(O)c4c3[C@@]1(CCN2CC1CC1)[C@H]5O4"
MET

---

# EXPERIMENT NOTES: Compound was tested for antagonist activity against Opioid receptor delta 1 in mouse vas deferens (MVD) smooth muscle preparation at 100 nM using DADLE as agonist
# Format: functional
Record form. Attribute: Ratio. Fill in for each entry.

What Ratio value was documented for this compound, "O=C1C(=Cc2ccccc2)C[C@@]2(O)[C@H]3Cc4ccc(O)c5c4[C@@]2(CCN3CC2CC2)[C@H]1O5" ?
35

Proceed to "Oc1ccc2c3c1O[C@H]1c4sc5c(c4C[C@@]4(O)[C@@H](C2)N(CC2CC2)CC[C@]314)C[C@@]1(O)[C@H]2Cc3ccc(O)c4c3[C@@]1(CCN2CC1CC1)[C@H]5O4"
4

Proceed to "Oc1ccc2c3c1O[C@H]1C(SSC4=CC[C@@]5(O)[C@H]6Cc7ccc(O)c8c7[C@@]5(CCN6CC5CC5)[C@H]4O8)=CC[C@@]4(O)[C@@H](C2)N(CC2CC2)CC[C@]314"
8.6

Proceed to "Oc1ccc2c3c1O[C@H]1C4=C(C[C@@]5(O)[C@@H](C2)N(CC2CC2)CC[C@]315)C(c1ccccc1)C1=C(O4)[C@@H]2Oc3c(O)ccc4c3[C@@]23CCN(CC2CC2)[C@H](C4)[C@]3(O)C1"
3.8

---

# STUDY SYSTEM: Mu-type opioid receptor (Cavia porcellus, UniProt P97266)
# Sequence (P97266 whole entry): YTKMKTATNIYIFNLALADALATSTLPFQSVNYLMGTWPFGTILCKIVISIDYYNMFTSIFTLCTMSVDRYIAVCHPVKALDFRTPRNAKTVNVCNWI
# EXPERIMENT NOTES: Binding affinity of compound was measured against Opioid receptor mu 1 on electrically stimulated guinea pig ileal longitudinal muscle myenteric plexus (GPI)at 100 nM preparation using DAMGO as agonist
ENDPOINT NAME: Ki

What Ki value was documented for this compound, Oc1ccc2c3c1O[C@H]1c4[nH]c5c(c4C[C@@]4(O)[C@@H](C2)N(CC2CC2)CC[C@]314)C[C@@]1(O)[C@H]2Cc3ccc(O)c4c3[C@@]1(CCN2CC1CC1)[C@H]5O4 [NORBINALTORPHIMINE] ?
47 nM

Proceed to "Oc1ccc2c3c1O[C@H]1c4sc5c(c4C[C@@]4(O)[C@@H](C2)N(CC2CC2)CC[C@]314)C[C@@]1(O)[C@H]2Cc3ccc(O)c4c3[C@@]1(CCN2CC1CC1)[C@H]5O4"
189 nM

---

# STUDY SYSTEM: Delta-type opioid receptor (Mus musculus) (UniProt P32300)
# Sequence (P32300 whole entry): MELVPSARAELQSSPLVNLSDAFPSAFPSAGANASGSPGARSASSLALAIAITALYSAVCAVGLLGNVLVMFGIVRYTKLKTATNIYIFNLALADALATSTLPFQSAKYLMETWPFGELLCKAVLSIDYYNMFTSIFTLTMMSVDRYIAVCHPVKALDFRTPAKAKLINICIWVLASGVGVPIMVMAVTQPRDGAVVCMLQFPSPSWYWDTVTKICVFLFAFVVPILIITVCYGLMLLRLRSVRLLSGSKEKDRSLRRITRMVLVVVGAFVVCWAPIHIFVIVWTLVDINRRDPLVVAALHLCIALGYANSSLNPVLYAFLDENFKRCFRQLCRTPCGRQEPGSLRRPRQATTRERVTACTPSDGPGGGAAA
# EXPERIMENT NOTES: Maximal inhibition of compound was measured on Mouse vas deferens(MVD) preparation
# Format: functional
// label = true if Activity is not less than 9, otherwise false

Can "Oc1ccc2c3c1O[C@H]1c4[nH]c5c(c4C[C@@]4(O)[C@@H](C2)N(CC2CC2)CC[C@]314)C[C@@]1(O)[C@H]2Cc3ccc(O)c4c3[C@@]1(CCN2CC1CC1)[C@H]5O4" be said to have Activity at or above 9?
true

Proceed to "O=C1C(=Cc2ccccc2)C[C@@]2(O)[C@H]3Cc4ccc(O)c5c4[C@@]2(CCN3CC2CC2)[C@H]1O5"
false

Proceed to "Oc1ccc2c3c1O[C@H]1c4sc5c(c4C[C@@]4(O)[C@@H](C2)N(CC2CC2)CC[C@]314)C[C@@]1(O)[C@H]2Cc3ccc(O)c4c3[C@@]1(CCN2CC1CC1)[C@H]5O4"
false

Proceed to "Oc1ccc2c3c1O[C@H]1C(SSC4=CC[C@@]5(O)[C@H]6Cc7ccc(O)c8c7[C@@]5(CCN6CC5CC5)[C@H]4O8)=CC[C@@]4(O)[C@@H](C2)N(CC2CC2)CC[C@]314"
true

---

# STUDY SYSTEM: Kappa-type opioid receptor (Cavia porcellus, UniProt P41144)
# Sequence (P41144 whole entry): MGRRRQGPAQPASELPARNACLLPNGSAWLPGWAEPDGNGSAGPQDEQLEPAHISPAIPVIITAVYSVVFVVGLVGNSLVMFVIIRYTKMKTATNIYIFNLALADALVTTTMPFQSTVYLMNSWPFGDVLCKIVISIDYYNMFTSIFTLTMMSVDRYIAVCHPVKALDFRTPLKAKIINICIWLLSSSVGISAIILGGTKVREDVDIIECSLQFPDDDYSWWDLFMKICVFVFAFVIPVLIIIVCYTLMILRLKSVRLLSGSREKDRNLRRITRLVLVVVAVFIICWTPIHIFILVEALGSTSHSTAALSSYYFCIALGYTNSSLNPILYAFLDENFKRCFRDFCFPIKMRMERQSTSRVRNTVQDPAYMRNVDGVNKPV
# EXPERIMENT NOTES: Binding affinity of compound was measured against Opioid receptor kappa 1 on electrically stimulated guinea pig ileal longitudinal muscle myenteric plexus (GPI) at 100 nM preparation using U-50,488H as agonist
Record form. Attribute: Ki. Fill in for each entry.
Field note: include the unit after the figure.

What Ki value was documented for this compound, Oc1ccc2c3c1O[C@H]1c4[nH]c5c(c4C[C@@]4(O)[C@@H](C2)N(CC2CC2)CC[C@]314)C[C@@]1(O)[C@H]2Cc3ccc(O)c4c3[C@@]1(CCN2CC1CC1)[C@H]5O4 [NORBINALTORPHIMINE] ?
0.26 nM

Proceed to "Oc1ccc2c3c1O[C@H]1c4sc5c(c4C[C@@]4(O)[C@@H](C2)N(CC2CC2)CC[C@]314)C[C@@]1(O)[C@H]2Cc3ccc(O)c4c3[C@@]1(CCN2CC1CC1)[C@H]5O4"
1.4 nM
